Numbers sourced from patent US4225611A.

Assay: acute toxicity in the rat, by the oral route
Conditions: in vivo, single dose
READOUT: LD50 (mg/kg)
Report the value in mg/kg with no unit label.

# input Dear colleague, I am looking for the recorded LD50 of the following molecule: CCN1CCCC1CNS(=O)(=O)c1cc(Cl)c(N)cc1OC (stereo not shown)
# output 1500
